measuredOn: T1, recombinant CD40 (human, UniProt P25942 21-193, limits assumed)
T1 construct: the ELISA method itself names no species or construct; also called antigen CD40
procedureSummary: ELISA, plates coated with recombinant CD40, AP-conjugated anti-human kappa detection; effective concentration in supernatant read on a PG102 reference curve
property: CD40 binding (mg/L)
Just the number please, in mg/L, no unit attached.

Consider the following illustrative entries.
PG102 wild-type recombinant antibody (antibody, human IgG4 S228P, kappa, V domains shown, Human IgG4pro(deltaK) heavy, kappa light; also called PG102_Wt; PG102 wt) VH: QVKLQESGPGLVKPSETLSITCTVSGFSLSRYSVYWIRQPPGKGPEWMGMMWGGGSTDYSTSLKSRLTISKDTSKSQVSLKMNSLRTDDTAMYYCVRTDGDYWGQGTTVTVSS VL: ELQLTQSPLSLPVTLGQPASISCRSSQSLANSNGNTYLHWYLQRPGQSPRLLIYKVSNRFSGVPDRFSGSGSGTDFTLKISRVEAEDVGVYYCSQSTHVPWTFGGGTKLEIKR : 14.6
PG102_Var9 (antibody, human IgG4 S228P, kappa, V domains shown, IgG4pro(deltaK)/kappa; also called FFP104_Var9) VH: QVQLQESGPGLVKPSETLSITCTVSGFSLSRYSVYWIRQPPGKGPEWMGMMWGGGSTDYSTSLKSRLTISKDTSKSQVSLKMSSLTAADTAVYYCVRTDGDYWGQGTLVTVSS VL: ELQLTQSPLSLPVTLGQPASISCRSSQSLADSQGNTYLHWYLQRPGQSPRLLIYKVSNRFSGVPDRFSGSGSGTDFTLKISRVEAEDVGVYYCSQSTHVPWTFGGGTKLEIKR : 17

Let us move to another entry and its CD40 binding.
Query :: # CD40 binding lookup, item PG102_Var13 (antibody, human IgG4 S228P, kappa, V domains shown, IgG4pro(deltaK)/kappa; also called FFP104_Var13) VH: QVQLQESGPGLVKPSETLSITCTVSGFSLSRYSVYWIRQPPGKGPEWMGMMWGGGSTDYSTSLKSRLTISKDTSKSQVSLKMSSLTAADTAVYYCVRTDGDYWGQGTLVTVSS VL: DIVMTQSPLSLPVTPGQPASISCRSSQSLASSQGNTYLHWYLQKPGQSPRLLIYKVSNRFSGVPDRFSGSGSGTDFTLKISRVEAEDVGVYYCSQSTHVPWTFGGGTKLEIKR
Result :: 22.8
